Recorded values, source ChEMBL document CHEMBL1136941.

target or test system: Kappa-type opioid receptor (Homo sapiens, UniProt P41145)
Sequence (P41145 whole entry): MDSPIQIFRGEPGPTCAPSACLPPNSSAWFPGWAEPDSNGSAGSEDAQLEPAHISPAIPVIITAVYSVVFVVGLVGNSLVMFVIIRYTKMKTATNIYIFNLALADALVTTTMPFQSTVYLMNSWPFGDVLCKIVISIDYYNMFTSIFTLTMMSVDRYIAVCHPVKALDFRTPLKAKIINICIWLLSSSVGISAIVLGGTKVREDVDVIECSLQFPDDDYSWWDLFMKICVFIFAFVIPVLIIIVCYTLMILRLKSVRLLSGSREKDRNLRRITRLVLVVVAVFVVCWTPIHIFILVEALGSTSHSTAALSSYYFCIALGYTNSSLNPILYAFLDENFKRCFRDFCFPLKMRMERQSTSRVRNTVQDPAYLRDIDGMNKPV
run description: Displacement of [3H]U69593 from human cloned kappa opioid receptor expressed in CHO cells
measurement type: IC50 (nM)
Answers are plain numbers, in nM.

Exercise: Provide only the value of recorded IC50 for Cc1ncc(-c2c(C)c(CN[C@H]3CC[C@@H](F)C3)nn2-c2ncccc2Cl)cc1F
Key: 530

###

run description: Lipophilicity, log D at pH 7.4 by shake-flask method
Type: physicochemical
experimental parameters: buffer
For each record, check the reported logD: if it is below 2 write Criterion met, else write Criterion not met.

# count of solved cases: 2
Exercise: # check: logD < 2 for Cc1ncc(-c2c(C)c(CNC3CCCC3)nn2-c2ncccc2Cl)cc1F
Key: Criterion not met

Exercise: # check: logD < 2 for Cc1c(CNC2CCCC2)nn(-c2ccc(Cl)cc2Cl)c1-c1ccc(Cl)cc1
Key: Criterion not met

---
Exercise: # check: logD < 2 for Cc1ccc(-c2c(C)c(CNC3CCC(F)(F)C3)nn2-c2ncccc2Cl)cn1 (stereo not given)
Key: Criterion not met

Exercise: # check: logD < 2 for Cc1ccc(-c2c(C)c(CNC3CCCC3)nn2-c2ncccc2C(F)(F)F)cn1
Key: Criterion met

Exercise: # check: logD < 2 for Cc1ccc(-c2c(C)c(CNC3CCCC3)nn2-c2ncccc2Cl)cn1
Key: Criterion met

Exercise: # check: logD < 2 for Cc1ccc(-c2c(C)c(CNC3CCCC3)nn2-c2ncc(Cl)cc2Cl)cn1
Key: Criterion not met

Exercise: # check: logD < 2 for Cc1c(CNC2CCCC2)nn(-c2ncccc2Cl)c1-c1ccc(C(F)(F)F)nc1
Key: Criterion not met

Exercise: # check: logD < 2 for Cc1c(CNC2CCCC2)nn(-c2ncccc2Cl)c1-c1cccnc1
Key: Criterion met
